# normalized growth per record follows
Experiment: chemical genetic growth profiling, strain panel (AID 1159580);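 also: tested at 20 µM; growth read once vehicle control cultures reached saturation at 30 °C; 1 = growth at the plate median or of vehicle wells; lower values mean less growth of the strain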
Conditions: S. cerevisiae deletion strains, growth OD, locus YOL006C, strain TOP1, hits give low values
The campaign covered roughly 5,500 compounds. About 2,000 (36%) were called active. Inconclusive results (about 18%) are left out. The list shows a part of the results.
metric: normalized growth

C1CCC(C(CC2CCCCN2)C2CCCCC2)CC1 (centres undefined)    0.115
C1CCN(CCC2CCCCN2)CC1 (centres undefined)    0.964
CC[C@@H](CO)NC(=O)[C@@H]1C=C2c3cccc4[nH]cc(c34)C[C@H]2N(C)C1    1.03
CC1=CC(=O)C2=C(C)CC(O)C3C(C)C(=O)OC3C12 (centres undefined)    1.13
CO[C@H]1C[C@H](O[C@H]2[C@H](C)[C@@H](OC3O[C@H](C)C[C@H](N(C)C)[C@H]3OC(C)=O)[C@@H](C)C[C@]3(CO3)C(=O)[C@H](C)[C@@H](OC(C)=O)[C@@H](C)[C@@H](C)OC(=O)[C@@H]2C)O[C@@H](C)[C@@H]1OC(C)=O (some centres undefined)    1
CN1C(=O)CCS(=O)(=O)C1c1ccc(Cl)cc1 (centres undefined)    1.1
c1ccc([C@H]2CN3CCSC3=N2)cc1    1.02
CCCc1nc2c(C)cc(-c3nc4ccccc4n3C)cc2n1Cc1ccc(-c2ccccc2C(=O)O)cc1    0.995
COC(=O)c1scc(S(=O)(=O)C(C)C)c1N/N=C(/C#N)C(=O)c1ccccc1    0.923

----------
Assay: chemical genetic growth profiling, strain panel (AID 1159580)
Settings: S. cerevisiae deletion strains, growth OD, locus YHR082C, strain KSP1, hits give low values
About 2,000 (36%) of roughly 5,500 compounds were called active. Not shown: some 18% with an inconclusive outcome. The list shows a part of the results.
# normalized growth per record follows
metric: normalized growth

Clc1ccc(N/N=C\c2sccc2Oc2ccccc2)cc1    0.361
N#C/C(=N/Nc1cccc(C(F)(F)F)c1)C(=O)c1csc(-c2cccnc2)n1    0.292
CC(C)(C)c1ccc(C(=O)NNC(=S)Nc2ccc(Cl)cc2)cc1    0.984
COc1cc(N2C(=O)C=CC2=O)cc(OC)c1OC    0.147
Cn1nc(-c2ccccc2)c(O)c(N=Nc2ccccc2)c1=O    0.964
CN1c2ccccc2C(C)(C)C12C=Cc1cc(O)ccc1O2 (configuration not stated)    1.06
COc1cc(OC)cc(N2C(=O)C=CC2=O)c1    0.112
O=C(Nc1cccnc1)c1cc2c(s1)-c1ccccc1CC2    0.583
CS/C(Nc1cccc(C(F)(F)F)c1)=C(/C#N)S(=O)(=O)c1ccc(Cl)cc1    1.01
C/C(=N/NC(=O)c1ccc(C(C)(C)C)cc1)c1ccccc1O    1.07
O=C(NNC(=S)Nc1ccc(Cl)cc1)c1ncc(C(F)(F)F)cc1Cl    1.08
FC(F)(F)c1cc(-c2ccc(Cl)cc2)n[nH]1    0.826
COc1ccc(C2CC(c3ccc(C)cc3C)=NN2C(C)=O)cc1 (configuration not stated)    0.984
S=C(Nc1ccc(Cl)cc1)Nc1ccc(Cl)cc1    0.902
OC(CSc1ccccc1)CN1CCN(c2nc(-c3ccccc3)ns2)CC1 (configuration not stated)    0.983
CC(C)(C)C(=O)c1sc2sc(C(=O)C(C)(C)C)c(N)c2c1N    0.62
CSc1nnc(COc2ccc(C)c3c2CCC3)n1-c1ccccc1    1.02

----------
Assay: chemical genetic growth profiling, strain panel (AID 1159580);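 also: tested at 20 µM; growth read once vehicle control cultures reached saturation at 30 °C; 1 = growth at the plate median or of vehicle wells; lower values mean less growth of the strain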
Conditions: S. cerevisiae deletion strains, growth OD, locus YCL011C, strain gbp2
Hit rate of the full screen: of about 5,500 compounds, about 2,000 (36%) were called active. About 18% were inconclusive and are not listed. No stated cut-off is given here; in the data, active means normalized growth mostly below about 0.91 (no sharp cut-off); inconclusive means no clear call, values can overlap the other calls; inactive means mostly above about 0.92. The list shows a part of the results. Where a SMILES comes first, the peptide text is derived from it. [ ]: non-standard residue; d: D form. Orn = NCCC[CH](N)C(=O)O
Outcome codes: active, inactive

CC[C@@H](CO)NC(=O)[C@@H]1C=C2c3cccc4[nH]cc(c34)C[C@H]2N(C)C1    inactive
CN(C)C(=N)N=C(N)N    inactive
CC(=O)NO    inactive
CC1(C)C(=O)[C@@H]2C[C@@]3(O)C4=CC(=O)O[C@@H](c5ccoc5)[C@]4(C)CCC3[C@@](C)(C2=O)[C@H]1CC(=O)O (stereo partly drawn)    inactive
COc1c2occc2c(OC)c2c(=O)cc(C)oc12    inactive
O=C(O)c1cc(=O)c2c(Cl)cc(Cl)cc2[nH]1    inactive
COc1cc2cc3c4cc(OC)c(OC)cc4cc[n+]3c(C)c2cc1OC    inactive
COc1ccc([C@H]2COc3c(ccc(O)c3OC)C2)c(OC)c1O    inactive
CN1CCN(CCCN2c3ccccc3Sc3ccc(C(F)(F)F)cc32)CC1    active
COc1c2c(cc3c1OCO3)C13C=C[C@H](OC)CC1N(C2)CC3O (stereo partly drawn)    inactive
OCCN1CCN(CCCN2c3ccccc3Sc3ccc(C(F)(F)F)cc32)CC1    inactive
CC(C)CC1NC(=O)C(CCCN)NC(=O)C(C(C)C)NC(=O)C2CCCN2C(=O)C(Cc2ccccc2)NC(=O)C(CC(C)C)NC(=O)C(CCCN)NC(=O)C(C(C)C)NC(=O)C2CCCN2C(=O)C(Cc2ccccc2)NC1=O (stereo not drawn) (cyclo(FPV[Orn]LFPV[Orn]L); configuration not given here)    inactive
O=C(O)c1cc(=O)c2cccc(O)c2[nH]1    inactive
CC(=O)[C@@]1(O)CCC2C3CCC4=CC(=O)CC[C@]4(C)C3CC[C@@]21C (stereo partly drawn)    inactive
OC(c1cc(C(F)(F)F)nc2c(C(F)(F)F)cccc12)C1CCCCN1 (stereo not drawn)    inactive
COc1c2ccoc2cc2oc(C)cc(=O)c12    inactive
COc1ccc2c(=O)ccoc2c1    inactive
CN1CCN(CCC=C2c3ccccc3Sc3ccc(S(=O)(=O)N(C)C)cc32)CC1    inactive

----------
# normalized growth per record follows
Experiment: chemical genetic growth profiling, strain panel (AID 1159580);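 also: tested at 20 µM; growth read once vehicle control cultures reached saturation at 30 °C; 1 = growth at the plate median or of vehicle wells; lower values mean less growth of the strain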
Conditions: S. cerevisiae deletion strains, growth OD, locus YOR001W, strain rrp6, hits give low values
Out of some 5,500 compounds screened, about 2,000 (36%) were called active. About 18% were inconclusive and are not listed. Some of the results follow. Where a SMILES comes first, the peptide text is derived from it. [ ]: non-standard residue; d: D form. Orn = NCCC[CH](N)C(=O)O
metric: normalized growth

CC(=O)Oc1cccc2c1C(=O)c1c(OC(C)=O)cc(C(=O)O)cc1C2=O    0.952 (inactive)
Cc1onc(-c2ccccc2Cl)c1C(=O)N[C@@H]1C(=O)N2[C@@H]1SC(C)(C)[C@@H]2C(=O)O    1.04 (inactive)
CC(C)CC1NC(=O)C(CCCN)NC(=O)C(C(C)C)NC(=O)C2CCCN2C(=O)C(Cc2ccccc2)NC(=O)C(CC(C)C)NC(=O)C(CCCN)NC(=O)C(C(C)C)NC(=O)C2CCCN2C(=O)C(Cc2ccccc2)NC1=O (stereo not drawn) (cyclo(FPV[Orn]LFPV[Orn]L); configuration not given here)    1 (inactive)

----------
Experiment: chemical genetic growth profiling, strain panel (AID 1159580);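 also: tested at 20 µM; growth read once vehicle control cultures reached saturation at 30 °C; 1 = growth at the plate median or of vehicle wells; lower values mean less growth of the strain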
Details: S. cerevisiae deletion strains, growth OD, locus YPR025C, strain CCL1, hits give low values
Among all 5,500 compounds or so, about 2,000 (36%) were called active. Inconclusive results (about 18%) are left out. The list shows a part of the results.
# normalized growth per record follows
metric: normalized growth

COc1cc(N2C(=O)C=CC2=O)cc(OC)c1OC    0.95
Clc1ccc(N/N=C\c2sccc2Oc2ccccc2)cc1    0.963
CC(C)(C)C(=O)c1sc2sc(C(=O)C(C)(C)C)c(N)c2c1N    0.991
N#C/C(=N/Nc1cccc(C(F)(F)F)c1)C(=O)c1csc(-c2cccnc2)n1    0.956
O=C(Nc1cc2c(s1)-c1cc(Cl)ccc1SC2)Oc1ccccc1    1.01
CC(C)(C)c1ccc(C(=O)NNC(=S)Nc2ccc(Cl)cc2)cc1    0.979
S=C(N/N=C\c1cccs1)NC1CC2CCC1C2 (stereo not drawn)    0.959
FC(F)(F)c1cc(-c2ccc(Cl)cc2)n[nH]1    0.917
CN1c2ccccc2C(C)(C)C12C=Cc1cc(O)ccc1O2 (stereo not drawn)    0.993
S=C(Nc1ccc(Cl)cc1)Nc1ccc(Cl)cc1    0.932
O=c1c(-c2ccccc2)c(O)c2cccc3c4ccccc4n1c23    0.149
COc1ccc(C2CC(c3ccc(C)cc3C)=NN2C(C)=O)cc1 (stereo not drawn)    0.992
O=c1c(-c2ccccc2)c(O)c2cccc3c4c(n1c23)CCCC4    0.952
Cn1nc(-c2ccccc2)c(O)c(N=Nc2ccccc2)c1=O    0.97
Cc1ccc2nc(-c3ccc([N+](=O)[O-])o3)oc(=O)c2c1    0.119
O=C(NNC(=S)Nc1ccc(Cl)cc1)c1ncc(C(F)(F)F)cc1Cl    0.98
CSc1nnc(COc2ccc(C)c3c2CCC3)n1-c1ccccc1    0.984
Cc1ccc(OCc2n[nH]c(=S)n2Cc2ccccc2)c2c1CCC2    0.989
